- test-target: Potassium voltage-gated channel subfamily A member 5 (Homo sapiens, UniProt P22460)
- Sequence (P22460 whole entry): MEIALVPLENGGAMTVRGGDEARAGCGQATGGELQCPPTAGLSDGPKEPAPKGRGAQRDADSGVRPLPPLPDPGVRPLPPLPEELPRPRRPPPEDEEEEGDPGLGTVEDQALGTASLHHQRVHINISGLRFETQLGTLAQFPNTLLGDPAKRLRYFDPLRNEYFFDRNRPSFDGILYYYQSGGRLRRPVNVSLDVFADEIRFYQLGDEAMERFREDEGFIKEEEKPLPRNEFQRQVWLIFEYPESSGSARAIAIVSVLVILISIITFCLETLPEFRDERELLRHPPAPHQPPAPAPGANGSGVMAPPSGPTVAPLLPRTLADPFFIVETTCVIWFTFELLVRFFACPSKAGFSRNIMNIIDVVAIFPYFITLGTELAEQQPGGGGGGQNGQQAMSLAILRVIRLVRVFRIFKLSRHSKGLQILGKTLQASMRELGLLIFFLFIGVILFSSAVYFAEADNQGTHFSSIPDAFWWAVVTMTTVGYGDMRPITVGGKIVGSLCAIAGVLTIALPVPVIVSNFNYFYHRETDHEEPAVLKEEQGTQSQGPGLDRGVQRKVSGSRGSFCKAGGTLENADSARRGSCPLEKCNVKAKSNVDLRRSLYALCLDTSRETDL
- test-description: Inhibition of human Kv1.5 ion channel expressed in CHO K1 cells
property-label: IC50 (µM)

(P) CC(=O)NCC(C)(C)CN(C1=NS(=O)(=O)c2cc(F)ccc21)c1ccccc1
(Q) CC(C)(CNC(=O)c1cccnc1O)CN(C1=NS(=O)(=O)c2cc(F)ccc21)c1ccccc1
(R) CC(C)(CNC(=O)C1(N)CC1)CN(C1=NS(=O)(=O)c2cc(F)ccc21)c1ccccc1
Rank ascending by IC50. Reply with the labels, ordered as the question asks.
R, P, Q

====

- test-target: Potassium voltage-gated channel subfamily A member 3 (Homo sapiens)
- test-description: Inhibition of human Kv1.3 ion channel expressed in CGE22 cells
- Type: cell-based
property-label: IC50 (nM)

These solved cases illustrate the format of a correct answer.
| molecule | test-target | numeric-value |
| --- | --- | --- |
| CC(C)(CNC(=O)CC1CCCCO1)CN(C1=NS(=O)(=O)c2cc(F)ccc21)c1ccccc1 (centres undefined) | Potassium voltage-gated channel subfamily A member 3 (Homo sapiens) | 1350 |
| CC(C)(CNC(=O)C1CCOCC1)CN(C1=NS(=O)(=O)c2ccccc21)c1ccccc1 | Potassium voltage-gated channel subfamily A member 3 (Homo sapiens) | 700 |
| CC(=O)NCC(C)(C)CN(C1=NS(=O)(=O)c2cc(F)ccc21)c1ccccc1 | Potassium voltage-gated channel subfamily A member 3 (Homo sapiens) | 1180 |
| CC(C)(CNC(=O)C1(O)CCC(F)(F)CC1)CN(C1=NS(=O)(=O)c2cc(F)ccc21)c1ccccc1 | Potassium voltage-gated channel subfamily A member 3 (Homo sapiens) | 390 |
| CC(C)(CNC(=O)c1cc[nH]c1)CN(C1=NS(=O)(=O)c2cc(F)ccc21)c1ccccc1 | Potassium voltage-gated channel subfamily A member 3 (Homo sapiens) | 1150 |
| CN1CCCC(C(=O)NCC(C)(C)CN(C2=NS(=O)(=O)c3cc(F)ccc32)c2ccccc2)C1 (centres undefined) | Potassium voltage-gated channel subfamily A member 3 (Homo sapiens) | 12000 |
| CC(CNC(=O)c1ccc(F)cc1)CN(C1=NS(=O)(=O)c2ccccc21)c1ccccc1 (centres undefined) | Potassium voltage-gated channel subfamily A member 3 (Homo sapiens) | 440 |

(1) CC(C)(CNC(=O)c1ccco1)CN(C1=NS(=O)(=O)c2cc(F)ccc21)c1ccccc1
(2) CC(C)(CNC(=O)C1(O)CCCC1)CN(C1=NS(=O)(=O)c2cc(F)ccc21)c1ccccc1
Hey, between 1 and 2 which has a smaller measured IC50? Record your answer as the label of the chosen record.
1
(1: 200 nM, 2: 470 nM)

====

- test-target: Potassium voltage-gated channel subfamily A member 3 (Homo sapiens, UniProt P22001)
- Sequence (P22001 whole entry): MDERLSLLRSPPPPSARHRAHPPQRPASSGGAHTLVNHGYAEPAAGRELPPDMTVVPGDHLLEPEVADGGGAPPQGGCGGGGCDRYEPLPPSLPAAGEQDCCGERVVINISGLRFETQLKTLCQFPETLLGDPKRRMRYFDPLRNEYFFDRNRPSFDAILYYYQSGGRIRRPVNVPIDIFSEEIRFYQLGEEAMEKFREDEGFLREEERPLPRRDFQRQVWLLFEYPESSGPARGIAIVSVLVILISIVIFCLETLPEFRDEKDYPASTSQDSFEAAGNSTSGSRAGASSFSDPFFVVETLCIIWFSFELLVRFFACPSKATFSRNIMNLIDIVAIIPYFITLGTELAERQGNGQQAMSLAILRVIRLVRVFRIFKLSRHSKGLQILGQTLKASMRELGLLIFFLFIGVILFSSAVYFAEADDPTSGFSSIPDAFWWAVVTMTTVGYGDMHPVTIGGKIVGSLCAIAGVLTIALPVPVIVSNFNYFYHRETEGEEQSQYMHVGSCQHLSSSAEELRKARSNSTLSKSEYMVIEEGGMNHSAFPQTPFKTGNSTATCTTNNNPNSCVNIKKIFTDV
- test-description: Inhibition of human Kv1.3 ion channel expressed in CGE22 cells
property-label: IC50 (µM)

(I) CC(C)(CNC(=O)c1cccc(C(F)(F)F)c1)CN(C1=NS(=O)(=O)c2ccccc21)c1ccccc1
(II) CC(C)(CNC(=O)c1cccnc1O)CN(C1=NS(=O)(=O)c2cc(F)ccc21)c1ccccc1
So which one has the bigger IC50 here, I or II ? Record your answer as the label of the chosen record.
II
(II: 10.1 µM, I: 0.56 µM)

(1) CC(C)(CNC(=O)C1CCCCO1)CN(C1=NS(=O)(=O)c2cc(F)ccc21)c1ccccc1 (stereo unspecified)
(2) CC(C)(CNC(=O)N1CCCC1)CN(C1=NS(=O)(=O)c2cc(F)ccc21)c1ccccc1
Hey, between 1 and 2 which has a smaller measured IC50? Record your answer as the label of the chosen record.
2

(1) CC(C)(CNC(=O)C1CCCCN1)CN(C1=NS(=O)(=O)c2cc(F)ccc21)c1ccccc1 (stereo unspecified)
(2) CC(C)(CNC(=O)C1CC1)CN(C1=NS(=O)(=O)c2cc(F)ccc21)c1ccccc1
So which one has the bigger IC50 here, 1 or 2 ? Record your answer as the label of the chosen record.
1

(I) CC(C)(CNC(=O)c1ccc(F)cc1)CN(C1=NS(=O)(=O)c2ccccc21)c1ccccc1
(II) CC(C)(CNC(=O)C1(O)CCOCC1)CN(C1=NS(=O)(=O)c2cc(F)ccc21)c1ccccc1
So which one has the bigger IC50 here, I or II ? Record your answer as the label of the chosen record.
II
(II: 1.07 µM, I: 0.16 µM)
